Listed here: items and their measured growth.
Tested on: U251 CNS
Assay: NCI-60 one-dose screen, 48 h (100 = growth as untreated, 0 = no growth, -100 = all killed)
Conditions: 10 µM unless noted
This is part of a sample that, as a whole, favours compounds with a hit. Of some 83,000 tested, about 20% had one in any assay. Active and inactive are the calls of the source. Rule for the calls: active = growth percent below 10; inactive = the rest.

- C#CCOc1ccccc1C(Nc1ccccc1)c1nnnn1C1CCCCC1 (stereo not drawn): 99.9% (inactive)
- O=C(CCCCCCN1CC(=O)N2[C@@H](c3ccc(Cl)c(F)c3)c3[nH]c4ccccc4c3C[C@H]2C1=O)NO: 85.1% (inactive)
- CC1OC(O[C@@H]2[C@H](O)C(CO)OC(O[C@H]3COC(O[C@H]4CC[C@]5(C)[C@H]6CC[C@]78OC[C@@]9(CC[C@](C)(C=O)C[C@H]97)C(=O)C[C@@]8(C)[C@]6(C)CC[C@H]5C4(C)C)[C@@H](O)[C@@H]3O)[C@H]2OC2OC[C@@H](O)[C@@H](O)[C@@H]2O)[C@@H](O)[C@@H](O)[C@H]1O (stereo partly drawn): 95.8% (inactive)

Challenge: # query: growth | item O=C(NCCCNc1cc(-c2cn(-c3ccccc3)nc2-c2cccc(O)c2)ccn1)Nc1cccc(C(F)(F)F)c1 | system: U251 CNS
Response given: 33.5% (inactive)

Challenge: # query: growth | item NC(=O)N1N=C(c2cc3ccccc3oc2=O)CC1c1cn(-c2ccccc2)nc1-c1ccc(Cl)cc1 (stereo not drawn) | system: U251 CNS
Response given: 30.5% (inactive)

Challenge: # query: growth | item COc1ccc(C(=O)c2c(N)c(C#N)cn2-c2cccc(OC)c2)cc1 | system: U251 CNS
Response given: 33.8% (inactive)

Challenge: # query: growth | item COc1cc(/C=C/C(=O)c2ccc(NC(=O)CSc3nnc(-c4ccc5nc(-c6ccccc6)[nH]c5c4)o3)cc2)cc(OC)c1OC | system: U251 CNS
Response given: 80.6% (inactive)

Challenge: # query: growth | item CS(=O)(=O)c1nccc(-c2c(-c3ccc(F)c(OCCc4ccc(F)cc4)c3)nc3sccn23)n1 | system: U251 CNS
Response given: 71.4% (inactive)

====

System: OVCAR-8 ovarian
Test: NCI-60 one-dose screen, 48 h (100 = growth as untreated, 0 = no growth, -100 = all killed)
Details: 10 µM unless noted
This is part of a sample that, as a whole, favours compounds with a hit. Of some 83,000 tested, about 20% had one in any assay.
Listed here: items and their measured growth.
Give the value in % but do not write % after it.

- Cc1nn(-c2ccccc2)cc1/C=N/Nc1nc(Nc2ccccc2)nc(Nc2ccc(S(N)(=O)=O)cc2)n1: 18.2

Challenge: # query: growth | item Cn1cc(-c2nn3cc(-c4cccnc4)nc3s2)c2ccccc21 | system: OVCAR-8 ovarian
Response given: 36.4

Challenge: # query: growth | item COc1ccccc1N1CCN(C2=NN=C(c3cccc(Cl)c3)c3ccccc3C2)CC1 | system: OVCAR-8 ovarian
Response given: 13

Challenge: # query: growth | item Oc1ccc(CSc2nnc(-c3ccc(Br)cc3)n2-c2ccccc2)c2cccnc12 | system: OVCAR-8 ovarian
Response given: 23.4

Challenge: # query: growth | item C#C[C@]1(O)CC[C@H]2[C@@H]3CC=C4c5sc(-c6ccccn6)nc5CC[C@]4(C)[C@H]3CC[C@@]21C | system: OVCAR-8 ovarian
Response given: 91.8

====

Listed here: items and their measured growth.
Test system: HS 578T breast
Assay: NCI-60 one-dose screen, 48 h (100 = growth as untreated, 0 = no growth, -100 = all killed)
Conditions: 10 µM unless noted
The panel holds about 83,000 compounds, 20% with a hit somewhere; the sample as a whole holds those more often.
Give the value in % but do not write % after it.

- CC[C@]12C=CCN3CC[C@]4(C(=C(C(=O)OC)C1)Nc1cc5c(cc14)[C@@H]1[C@H](O5)[C@@H](O)[C@@]4(CC)CC(C(=O)OC)=C5Nc6cc(OC)ccc6[C@@]56CCN1[C@@H]46)[C@@H]32: 11.6
- CCCCOc1ccc(S(=O)(=O)N2CCN(c3nccc(N4CCOCC4)n3)CC2)cc1: 69.4
- C/C(=N/Nc1nc(N/N=C(/C)c2ccc([N+](=O)[O-])cc2)nc(N2CCOCC2)n1)c1ccc([N+](=O)[O-])cc1: 78.7

Challenge: Query: growth; subject: Cc1cnc2nc(NN)[nH]n12
Response given: 107

Challenge: Query: growth; subject: O=C(c1ccc(O)cc1)[C@@H]1[C@@H]2CCCN2[C@@]2(C(=O)N(C(=O)c3ccc(F)cc3)c3ccccc32)[C@H]1c1ccc(F)cc1
Response given: 105

Challenge: Query: growth; subject: c1ccc(-c2n(Cc3ccc4ccccc4c3)c3c4ccccc4c4ccccc4c3[n+]2Cc2ccc3ccccc3c2)cc1
Response given: -42.9

====

Tested on: SK-MEL-2 melanoma
Assay: NCI-60 one-dose screen, 48 h (100 = growth as untreated, 0 = no growth, -100 = all killed)
Conditions: 10 µM unless noted
Experimental: Growth inhibition of the SK-MEL-2 human tumor cell line is measured as a screen for anti-cancer activity. Cells are grown in 96 well plates and exposed to the test compound for 48 hours. Compounds are tested at a single concentration, which is 10^-5 M for most compounds. The reported endpoint is percent growth (GI% or GIPRCNT), where numbers from 0 - 100% represent growth inhibition, and numbers from -100% - 0 represent cell death. For example, a value of 40 represents 60% growth inhibition. […]
This is part of a sample that, as a whole, favours compounds with a hit. Of some 83,000 tested, about 20% had one in any assay.
Listed here: items and their measured growth.
Give the value in % but do not write % after it.

Use the examples below as a reference point.
- COc1cc(CNC(=O)/C=C/c2ccccc2)ccc1OCC(=O)NO: 99.6
- CCOC(=O)c1c(NC(=O)c2ccc(F)cc2F)sc2c1CCC(=O)C2: 98.3
- C#CCOc1ccc(/C=N/Nc2nc(-c3cc4cc(Br)cc(Br)c4oc3=O)cs2)cc1: 109
- CC(C)Sc1nc(NC2CC2)c(C#N)c(-c2ccccc2)n1: 124
- C#C[C@]1(O)CC[C@H]2[C@@H]3CC=C4c5sc(-c6ccc(OC)cc6)nc5CC[C@]4(C)[C@H]3CC[C@@]21C: 53.8

Challenge: Query: growth; subject: NS(=O)(=O)Oc1ccc2nc(Nc3ccc(F)c(F)c3)ccc2c1
Response given: 116

Challenge: Query: growth; subject: CC(C)(C)OC(=O)N1CCN(S(=O)(=O)/N=C2\NC(=O)NC2=C(Cl)Cl)CC1
Response given: 88.9

Challenge: Query: growth; subject: CC(=O)C1=NN(c2ccc(Cl)cc2)C(=O)CN1C
Response given: 102

Challenge: Query: growth; subject: Oc1ccccc1-c1nnc(SCc2ccc(O)c3ncccc23)n1-c1ccccc1
Response given: 23.1

Challenge: Query: growth; subject: COc1ccc(Cn2cc3c(c2-c2cc(OC)c(OC)c(OC)c2)CCCc2cnoc2-3)cc1N
Response given: 55.4

Challenge: Query: growth; subject: C=C(C)[C@@H]1CC[C@]2(C)[C@H](CC=C3[C@@H]4CC(C)(C)CC[C@]4(C(=O)NCC#CCN4CCN(C)CC4)CC[C@]32C)[C@@]1(C)CCC#N
Response given: 94

Challenge: Query: growth; subject: CN(C)CCn1c2ccc(N)cc2c2nc3ccccc3nc21
Response given: 54.6

Challenge: Query: growth; subject: O=S(=O)(Nc1ccc(C2CC2)cc1)c1ccc(-c2cnc(C3CC3)o2)cc1
Response given: 64.8

Challenge: Query: growth; subject: O=C(O)c1ccc(-n2cc(CNc3ccc(F)cc3)c(-c3ccc(C(F)(F)F)cc3)n2)cc1
Response given: 110

Challenge: Query: growth; subject: CCC(=O)Nc1ccc(-c2nc(-c3cccc(O)c3)c(-c3ccnc(Br)c3)[nH]2)cc1
Response given: 65.9

Challenge: Query: growth; subject: N#C/C(=C\c1ccc(-c2ccc(F)cc2)o1)C(=O)Nc1ncc(Cc2ccc(Cl)cc2Cl)s1
Response given: 68.9

Challenge: Query: growth; subject: Cc1ccc(C2CC(c3ccc(Nc4nc(NCCO)nc(Nc5ccc(Cl)cc5)n4)cc3)=Nc3c(N)nc(N)nc3N2)cc1 (centres undefined)
Response given: 99

Challenge: Query: growth; subject: O=C(/C=C/c1cn(-c2ccccc2)nc1-c1ccc(Cl)cc1)c1cc2ccccc2oc1=O
Response given: 88

Challenge: Query: growth; subject: O=C(COc1ccc(C2SCC(=O)N2c2ccccc2)cc1)c1ccccc1 (centres undefined)
Response given: 103

====

Listed here: items and their measured growth.
System: CCRF-CEM leukemia
Experiment: NCI-60 one-dose screen, 48 h (100 = growth as untreated, 0 = no growth, -100 = all killed)
Conditions: 10 µM unless noted
Description: Growth inhibition of the CCRF-CEM human tumor cell line is measured as a screen for anti-cancer activity. Cells are grown in 96 well plates and exposed to the test compound for 48 hours. Compounds are tested at a single concentration, which is 10^-5 M for most compounds. The reported endpoint is percent growth (GI% or GIPRCNT), where numbers from 0 - 100% represent growth inhibition, and numbers from -100% - 0 represent cell death. For example, a value of 40 represents 60% growth inhibition. […]
Compounds without any hit were thinned out: in the full panel of roughly 83,000, 20% have a hit. Activity calls are given as the source filed them. The calls were made as follows: active = growth percent below 10; inactive = the rest.

Use the examples below as a reference point.
* IP(CCCSc1n(Cc2ccc3ccccc3c2)c(-c2ccccc2)c(-c2ccccc2)[n+]1Cc1ccc2ccccc2c1)(c1ccccc1)(c1ccccc1)c1ccccc1 | 32.5% (inactive)
* COc1ccc(C(=O)n2cc(C=O)c3ccccc32)cc1 | 103% (inactive)
* O=c1c2ccccc2nc(COc2ccccc2)n1/N=C/C=C/c1ccccc1 | 84.3% (inactive)
* O=C(Cn1cc(CN2C(=O)c3ccc([N+](=O)[O-])cc3C2=O)nn1)Nc1ccccc1Br | 95.1% (inactive)

Challenge: Query: growth; subject: COc1ccc(/C=N/Nc2nc(N/N=C/c3ccc(OC)cc3O)nc(N3CCOCC3)n2)c(O)c1
Response given: 27.1% (inactive)
